Provide the reported self-cleavage kobs at 640 uM GlcN6P of each item.
B1: glmS ribozyme (parent)
chain: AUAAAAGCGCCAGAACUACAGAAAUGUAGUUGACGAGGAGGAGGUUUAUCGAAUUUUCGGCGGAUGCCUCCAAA

# Variants of: B1
# Measurement description: self-cleavage kobs at 640 uM GlcN6P; higher = faster cleavage; RNA array
# Measurement context: with glucosamine-6-phosphate
Fewer inactive variants are shown than the library holds.
Answers are plain numbers, in s⁻¹.

A14G U54C C68G ... 0.000112
U45A A48C ... 0.000131
C58U C61A ... 0.000108

List reported self-cleavage kobs at 640 uM GlcN6P for each of these variants:
1. U49G U55G
2. C8G U30G G37A G66A U69G

a:
1: 0.000247; 2: 0.000166

List reported self-cleavage kobs at 640 uM GlcN6P for each of these variants:
1. A12G U54A
2. A14U A15G G37A
3. U47A A52G
4. U31A U56G C58G
5. A12C U45C

a:
1. 0.000125
2. 0.000119
3. 0.000221
4. 9.04e-05
5. 0.000289

List reported self-cleavage kobs at 640 uM GlcN6P for each of these variants:
1. G13U U54G
2. A12G U55A
3. A14G G37C

a:
1: 0.000263; 2: 0.000161; 3: 5.36e-05

List reported self-cleavage kobs at 640 uM GlcN6P for each of these variants:
1. C61G A64G C71G
2. A15C U46A
3. G35A U49A C67G C68G
4. A14G U69A C70A
5. A53U U54C
6. U30C G32C C58A
7. G40A C71G
8. C11U U31C

a:
[0.000141, 0.000102, "9.7e-05", "5.74e-05", 0.00401, "3.93e-05", 0.00161, 0.000179]

List reported self-cleavage kobs at 640 uM GlcN6P for each of these variants:
1. G32A A36C U55G C67G C68G
2. U54A U56G
3. A12U A15G U47G

a:
[0.000126, 0.00363, 0.00207]
